# Test system: MCF7
# protocol: NCI tumour cell line growth inhibition, 48 h
Activity calls are given as the source filed them. Rule as the data show it: active = GI50 up to about 1.1 µM and inactive = higher.
Parameter call: string, one of active, inactive

// known answers, use as guide
CC(C)N(C(C)C)S(=O)(=O)CC12CCC(C/C1=N\O)C2 (stereo unspecified) :: inactive
CC1=CC=CC(C)(C)CC1(O[Si](C)(C)C)C(F)(F)F (stereo unspecified) :: inactive
N#C/C(C(=O)Nc1ccc(Cl)cc1)=C(/N)N1CCOCC1 :: inactive
COC1=CC(=O)c2c(c(-c3nc(C)cs3)cn2C)C1=O :: inactive
CC1=NN(C(=O)c2ccccc2O)C(=O)/C1=C/c1ccccc1O :: inactive
Nc1ccc2nc3ccc(N)cc3[n+](-c3ccccc3)c2c1 :: inactive

In the following, a different molecule is considered.
Recorded call for COc1ccc2[nH]c3c([N+](=O)[O-])ccc(NCCCN(C)C)c3/c(=N/CCCN(C)C)c2c1 ?
active
